- target_entity: NS1-D2 (Dengue) (Dengue virus type 2)
- Construct: the non-structural protein 1 of the Dengue virus 2 (NS1-D2)
- Sequence (P29990 776-1127 limits assumed): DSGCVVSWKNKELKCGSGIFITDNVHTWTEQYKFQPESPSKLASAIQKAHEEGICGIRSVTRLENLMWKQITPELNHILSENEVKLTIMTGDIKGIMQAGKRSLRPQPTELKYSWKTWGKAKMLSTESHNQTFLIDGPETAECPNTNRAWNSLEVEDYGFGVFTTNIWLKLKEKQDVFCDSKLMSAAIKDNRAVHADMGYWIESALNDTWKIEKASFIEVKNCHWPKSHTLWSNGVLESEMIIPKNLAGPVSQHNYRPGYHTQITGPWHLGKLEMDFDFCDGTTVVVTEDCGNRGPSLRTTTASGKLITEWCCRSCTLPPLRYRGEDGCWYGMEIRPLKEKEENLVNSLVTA
- assay_info: BIACORE surface plasmon resonance interaction with immobilized peptide
- Assay type: binding, Dengue virus 2
No end group written: not given here.
measured_metric: Kd (nM)
Numeric only. Scale: nM

Recorded Kd for RVTQMNLNDRLASLYDKV [SEQ ID NO: 1] , please? 769
